experimentalSystem: Tyrosine-protein phosphatase non-receptor type 1 (Homo sapiens, UniProt P18031)
Sequence (P18031 whole entry, the tested form may be a part): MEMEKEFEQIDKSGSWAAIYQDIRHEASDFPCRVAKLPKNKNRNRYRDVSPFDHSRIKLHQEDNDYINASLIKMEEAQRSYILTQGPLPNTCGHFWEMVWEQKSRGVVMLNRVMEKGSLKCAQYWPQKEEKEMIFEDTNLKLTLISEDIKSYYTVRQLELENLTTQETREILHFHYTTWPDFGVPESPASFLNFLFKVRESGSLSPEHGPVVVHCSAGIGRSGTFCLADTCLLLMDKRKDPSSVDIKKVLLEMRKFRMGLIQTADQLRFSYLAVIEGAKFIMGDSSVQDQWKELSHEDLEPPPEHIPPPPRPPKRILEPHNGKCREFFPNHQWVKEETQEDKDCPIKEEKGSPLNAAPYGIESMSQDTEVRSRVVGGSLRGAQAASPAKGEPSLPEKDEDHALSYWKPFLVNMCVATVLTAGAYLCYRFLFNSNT
assayName: Inhibition of recombinant human PTP1B (1 to 322 residues) expressed in Escherichia coli using pNPP as substrate by Dixon plot analysis
Provide the recorded Ki for the entries that follow.

I have this compound here, `COC1=C2C(=O)c3c(O)c4c(c(CC=C(C)C)c3O[C@@]23[C@H]2C[C@@H]1C(=O)[C@]3(CC=C(C)C)OC2(C)C)O[C@](C)(CCC=C(C)C)C=C4` , and I need its recorded Ki.
4380 nM

I have this compound here, CO[C@@H]1C2C(=O)c3c(O)c(C/C=C(\C)CCC=C(C)C)c(O)c(CC=C(C)C)c3O[C@@]23[C@H]2C[C@@H]1C(=O)[C@]3(C/C=C(/C)C(=O)O)OC2(C)C (some centres not stated) , and I need its recorded Ki.
390 nM

I have this compound here, `CC(C)=CCc1c2c(c(O)c3c1O[C@]14C(=C[C@@H]5C[C@H]1C(C)(C)O[C@@]4(/C=C(/C)CO)C5=O)C3=O)C=CC(C)(C)O2` , and I need its recorded Ki.
29300 nM

I have this compound here, `CC(C)=CCC[C@]1(C)C=Cc2c(O)c3c(c(CC=C(C)C)c2O1)O[C@]12C(=C[C@@H]4C[C@H]1C(C)(C)O[C@@]2(C/C=C(/C)C(=O)O)C4=O)C3=O` , and I need its recorded Ki.
190 nM

I have this compound here, CO[C@@H]1C2C(=O)c3c(O)c4c(c(CC=C(C)C)c3O[C@@]23[C@H]2C[C@@H]1C(=O)[C@]3(C/C=C(/C)C(=O)O)OC2(C)C)OC(C)(C)C=C4 (some centres not stated) , and I need its recorded Ki.
1750 nM

I have this compound here, CO[C@@H]1C2C(=O)c3c(O)c4c(c(CC=C(C)C)c3O[C@@]23[C@H]2C[C@@H]1C(=O)[C@]3(C/C=C(/C)C(=O)O)OC2(C)C)O[C@](C)(CCC=C(C)C)C=C4 (some centres not stated) , and I need its recorded Ki.
300 nM

I have this compound here, `CC(C)=CCC/C(C)=C/Cc1c(O)c(CC=C(C)C)c2c(c1O)C(=O)C1=C[C@@H]3C[C@H]4C(C)(C)O[C@@](C/C=C(/C)C(=O)O)(C3=O)[C@@]14O2` , and I need its recorded Ki.
1210 nM
